Test system: PC-12
procedure-text: Induction of neurite outgrowth in rat PC12 cells at 0.26 ug/ml incubated for 24 hrs by microscopic analysis
Assay type: functional, cell-based
Calls of active or inactive are those of the source. The calls are words filed in the database; no cut-off is given here.
Respond with a class label; see active, inactive

Called result for CC(C)(C)[C@]1(O)C[C@@H]2OC(=O)C[C@@]23C(=O)O[C@@H]2OC(=O)[C@H](O)[C@]213
active

Again, but for CC(C)(C)C1=C(C=O)[C@](CC(=O)OCc2ccccc2)(C(=O)OCc2ccccc2)C=C1
active

Again, but for CC(=O)O[C@@H]1OC(=O)[C@H](OC(C)=O)[C@]12[C@@]13CC(=O)O[C@H]1C[C@]2(C(C)(C)C)OC3=O
active

Again, but for CC(C)(C)[C@]1(O)C[C@@H]2OC(O)C[C@]2(CO)[C@@]12COC[C@@H]2O (stereo not given in full)
inactive

Again, but for CC(C)(C)[C@@]12C[C@@H]3OC(=O)C[C@]3(C(=O)O1)[C@@]21[C@H](OC(=O)c2ccc(Br)cc2)OC(=O)[C@@H]1OC(=O)c1ccc(Br)cc1
active
